Experiment: Stability of compound assessed as bovine trypsin mediated degradation at 2 to 5 mM after 2 hrs by HPLC/MS analysis
Assay type: ADME, Bos taurus
Conditions: cattle, isolated protein, 5000 µM
Square brackets hold non-standard residues; d marks the D form. Peptide text beside a SMILES is read from it. hArg = N=C(N)NCCCC[C@H](N)C(=O)O; Orn = NCCC[C@H](N)C(=O)O; Dab = NCC[C@H](N)C(=O)O
Observation Type: Stability

As a guide, the following entries are already answered.
INSERT INTO measurements (compound, reading) VALUES
  ('NCC[C@H](NC(=O)[C@H](CCN)NC(=O)[C@H](Cc1c[nH]c2ccccc12)NC(=O)[C@H](Cc1c[nH]c2ccccc12)NC(=O)[C@H](CCN)NC(=O)[C@H](Cc1c[nH]c2ccccc12)NC(=O)[C@H](Cc1c[nH]c2ccccc12)NC(=O)[C@H](CCN)NC(=O)[C@@H](N)CCN)C(N)=O (H-[Dab][Dab]WW[Dab]WW[Dab][Dab]-NH2)', 'Stable'),
  ('CC[C@H](C)[C@H](NC(=O)[C@H](Cc1c[nH]c2ccccc12)NC(=O)[C@H](CCCN)NC(=O)[C@H](Cc1c[nH]c2ccccc12)NC(=O)[C@H](Cc1c[nH]c2ccccc12)NC(=O)[C@H](CCCCNC(=N)N)NC(=O)[C@@H](N)CCCN)C(=O)N[C@@H](CCCCNC(=N)N)C(=O)N[C@@H](Cc1c[nH]c2ccccc12)C(N)=O (H-[Orn][hArg]WW[Orn]WI[hArg]W-NH2)', 'Unstable'),
  ('CC[C@H](C)[C@H](NC(=O)[C@H](Cc1c[nH]c2ccccc12)NC(=O)[C@H](CCCCN)NC(=O)[C@H](Cc1c[nH]c2ccccc12)NC(=O)[C@H](Cc1c[nH]c2ccccc12)NC(=O)[C@H](CCCNC(=N)N)NC(=O)[C@@H](N)CCCCN)C(=O)N[C@@H](CCCNC(=N)N)C(=O)N[C@@H](Cc1c[nH]c2ccccc12)C(N)=O', 'Unstable'),
  ('CC[C@H](C)[C@H](NC(=O)[C@H](Cc1c[nH]c2ccccc12)NC(=O)[C@H](CCCN)NC(=O)[C@H](Cc1c[nH]c2ccccc12)NC(=O)[C@H](Cc1c[nH]c2ccccc12)NC(=O)[C@H](CCCN)NC(=O)[C@@H](N)CCCN)C(=O)N[C@@H](CCCN)C(=O)N[C@@H](Cc1c[nH]c2ccccc12)C(N)=O (H-[Orn][Orn]WW[Orn]WI[Orn]W-NH2)', 'Unstable'),
  ('CC[C@H](C)[C@H](NC(=O)[C@H](Cc1c[nH]c2ccccc12)NC(=O)[C@H](CCCNC(=N)N)NC(=O)[C@H](Cc1c[nH]c2ccccc12)NC(=O)[C@H](Cc1c[nH]c2ccccc12)NC(=O)[C@H](CCCCN)NC(=O)[C@@H](N)CCCNC(=N)N)C(=O)N[C@@H](CCCCN)C(=O)N[C@@H](Cc1c[nH]c2ccccc12)C(N)=O (H-RKWWRWIKW-NH2)', 'Unstable');

Provide each entry's Stability from the list below.
1. CC[C@@H](C)[C@@H](NC(=O)[C@@H](CCCNC(=N)N)NC(=O)[C@H](N)Cc1c[nH]c2ccccc12)C(=O)N[C@H](Cc1c[nH]c2ccccc12)C(=O)N[C@H](CCCCN)C(=O)N[C@H](Cc1c[nH]c2ccccc12)C(=O)N[C@H](Cc1c[nH]c2ccccc12)C(=O)N[C@H](CCCNC(=N)N)C(=O)N[C@H](CCCCN)C(N)=O
2. N=C(N)NCCCC[C@H](NC(=O)[C@@H](CCCCNC(=N)N)NC(=O)[C@H](Cc1c[nH]c2ccccc12)NC(=O)[C@H](Cc1c[nH]c2ccccc12)NC(=O)[C@H](CCCCNC(=N)N)NC(=O)[C@H](Cc1c[nH]c2ccccc12)NC(=O)[C@@H](Cc1c[nH]c2ccccc12)NC(=O)[C@@H](CCCCNC(=N)N)NC(=O)[C@@H](N)CCCCNC(=N)N)C(N)=O

Return:
1: Stable; 2: Unstable

For each of the compounds below, note its Stability.
1. CC[C@H](C)[C@H](NC(=O)[C@H](Cc1c[nH]c2ccccc12)NC(=O)[C@H](CCN)NC(=O)[C@H](Cc1c[nH]c2ccccc12)NC(=O)[C@H](Cc1c[nH]c2ccccc12)NC(=O)[C@H](CCN)NC(=O)[C@@H](N)CCN)C(=O)N[C@@H](CCN)C(=O)N[C@@H](Cc1c[nH]c2ccccc12)C(N)=O (H-[Dab][Dab]WW[Dab]WI[Dab]W-NH2)
2. N=C(N)NCCC[C@H](NC(=O)[C@H](CCCNC(=N)N)NC(=O)[C@H](Cc1c[nH]c2ccccc12)NC(=O)[C@H](Cc1c[nH]c2ccccc12)NC(=O)[C@H](CCCCN)NC(=O)[C@H](Cc1c[nH]c2ccccc12)NC(=O)[C@H](Cc1c[nH]c2ccccc12)NC(=O)[C@H](CCCNC(=N)N)NC(=O)[C@@H](N)CCCCN)C(N)=O
3. N=C(N)NCCC[C@@H](NC(=O)[C@@H](CCCNC(=N)N)NC(=O)[C@@H](Cc1c[nH]c2ccccc12)NC(=O)[C@@H](Cc1c[nH]c2ccccc12)NC(=O)[C@@H](CCCCN)NC(=O)[C@@H](Cc1c[nH]c2ccccc12)NC(=O)[C@@H](Cc1c[nH]c2ccccc12)NC(=O)[C@@H](CCCNC(=N)N)NC(=O)[C@H](N)CCCCN)C(N)=O

Return:
1. Unstable
2. Unstable
3. Stable
